Just for reference, the METLIN SMRT retention time set (Domingo-Almenara et al. 2019) is where these values come from.

Listing of entries alongside the reported RP-LC retention time.
protocolDetails: gradient 5% acetonitrile 3 min, to 50% in 2 min, to 85% in 15 min, held 3 min, 100 µL/min
protocolConditions: column: Zorbax Extend-C18 2.1 x 50 mm; eluents: water / acetonitrile, 0.1% formic acid
endpointName: RP-LC retention time (s)

INSERT INTO results (molecule, valuereported) VALUES
  ('COc1cc(-c2ccc(Cl)cc2)nc2ccc(NC(=O)c3cccs3)cc12', 814),
  ('O=C(NC1CCCC1)c1nc(C(=O)N2CCN(c3cccc(Cl)c3)CC2)cs1', 1020),
  ('Cc1nc(CNC(=O)c2ccc(-c3noc(C4CC4)n3)cc2)no1', 717),
  ('O=C(O)c1nnn(Cc2ccccc2F)c1-c1cccnc1', 633),
  ('Cc1ccc(F)c(NS(=O)(=O)c2cc3c(s2)CCN(C(=O)C2CC2)C3)c1', 848),
  ('O=C(Cn1nc2c(SC3CCCCC3)nccn2c1=O)Nc1ccc(Br)cc1F', 1120),
  ('Cc1ccc2c(Nc3cccc(C#N)c3)c(C(=O)N3CCCCC3)cnc2n1', 598),
  ('CC(C)n1cnc(S(=O)(=O)N2CCC(C(=O)NC3CCCCCC3)CC2)c1', 736),
  ('Cc1ccccc1CNS(=O)(=O)c1cn(CC(C)C)c2ncccc12', 763),
  ('COc1cccc(CNC(=O)C2(C)CCCN(C(=O)Nc3ccccc3C(F)(F)F)C2)c1 (centres undefined)', 934),
  ('CCc1ccccc1NC(=O)N1CCCC1c1nc(-c2ccc(OC)cc2)no1 (centres undefined)', 976),
  ('O=C(NC1CCCCC1)C1CCN(S(=O)(=O)c2cc(C(=O)N3CCOCC3)cs2)CC1', 710),
  ('CCN(C(=O)C1CCCN1S(=O)(=O)c1cc2c(cc1C)NC(=O)C(C)O2)c1ccccc1 (centres undefined)', 814),
  ('O=C(Nc1cccc(Br)c1)C1CCN(C(=O)c2cc(-c3ccncc3)n[nH]2)CC1', 640);
